measured_on: MERTK (Homo sapiens, UniProt Q12866)
Sequence (Q12866 21-999): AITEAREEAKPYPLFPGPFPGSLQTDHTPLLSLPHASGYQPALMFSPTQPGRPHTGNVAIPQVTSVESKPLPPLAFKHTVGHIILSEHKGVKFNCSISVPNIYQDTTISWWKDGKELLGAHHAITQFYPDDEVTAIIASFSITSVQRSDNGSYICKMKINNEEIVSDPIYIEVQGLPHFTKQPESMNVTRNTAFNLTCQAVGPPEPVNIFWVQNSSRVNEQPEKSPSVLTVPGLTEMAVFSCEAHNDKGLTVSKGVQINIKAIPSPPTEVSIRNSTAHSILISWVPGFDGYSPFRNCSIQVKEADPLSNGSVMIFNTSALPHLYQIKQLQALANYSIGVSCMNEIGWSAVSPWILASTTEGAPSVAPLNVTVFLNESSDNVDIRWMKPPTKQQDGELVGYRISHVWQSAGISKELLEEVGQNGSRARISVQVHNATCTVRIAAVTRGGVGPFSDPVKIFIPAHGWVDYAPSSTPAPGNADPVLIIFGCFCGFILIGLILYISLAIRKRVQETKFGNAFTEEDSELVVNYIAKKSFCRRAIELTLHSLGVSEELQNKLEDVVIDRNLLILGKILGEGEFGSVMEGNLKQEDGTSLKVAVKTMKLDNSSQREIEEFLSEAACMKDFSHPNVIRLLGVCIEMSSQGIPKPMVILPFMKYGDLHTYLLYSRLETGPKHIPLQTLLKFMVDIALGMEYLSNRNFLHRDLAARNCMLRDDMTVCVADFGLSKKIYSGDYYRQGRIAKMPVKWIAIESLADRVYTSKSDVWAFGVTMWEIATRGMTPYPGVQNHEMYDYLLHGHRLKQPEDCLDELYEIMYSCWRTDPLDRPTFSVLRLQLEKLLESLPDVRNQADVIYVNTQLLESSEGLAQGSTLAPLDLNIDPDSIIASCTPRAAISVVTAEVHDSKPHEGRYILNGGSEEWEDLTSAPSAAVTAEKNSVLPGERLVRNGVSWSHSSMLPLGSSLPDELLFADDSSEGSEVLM
test_method_notes: TR-FRET kinase activity assay, MERTK
Assay type: biochemical
particulars: TR-FRET activity assay, ATP at Km, 60 minutes; read-out: Mer IC50
pIC50: −log10 of the molar value.
result_type: pIC50

Example cases with answers are listed next.
>>> result("C[C@@H](CC(F)(F)F)Nc1ncc2c(O[C@@H]3C[C@H]4CC[C@@H](C3)N4C[C@@H]3CCCO3)ncc([C@H]3CC[C@H](O)CC3)c2n1")
"≥ 7.00"
>>> result("COC[C@@H](C)Nc1ncc2c(OC3CCOCC3)ncc([C@H]3CC[C@H](O)CC3)c2n1")
"6.00 to 7.00"
>>> result("C[C@@H](COC(F)F)Nc1ncc2c(O[C@H]3C[C@@H](O)C3)ncc([C@H]3CC[C@H](O)CC3)c2n1")
"≥ 7.00"
>>> result("CCCC(C)Nc1ncc2c(N(C)C3CCN(C)CC3)ncc([C@H]3CC[C@H](O)CC3)c2n1 (stereo partly shown)")
"≥ 7.00"
>>> result("C[C@@H](CC(F)(F)F)Nc1ncc2c(O[C@@H]3C[C@H]4CC[C@@H](C3)N4[C@H]3CCOC3)ncc([C@H]3CC[C@H](O)CC3)c2n1")
"≥ 7.00"
>>> result("CCCCNc1ncc2c(N(C)C)ncc([C@H]3CC[C@H](O)CC3)c2n1")
"5.00 to 6.00"

Turning to the following molecule.
Please fill in: pIC50 reported for "C[C@@H](CC(F)(F)F)Nc1ncc2c(O[C@H]3C[C@](C)(O)C3)ncc([C@H]3CC[C@H](O)CC3)c2n1" = ≥ 7.00

----------
IC50 values recorded for TYRO3 (Homo sapiens)

>>> result("C[C@@H](CC(F)(F)F)Nc1ncc2c(O[C@@H]3C[C@H]4CC[C@@H](C3)N4C[C@H]3CCCO3)ncc([C@H]3CC[C@H](O)CC3)c2n1 [Compound 412]")
"≤ 100 nM"

Please fill in: IC50 reported for CC[C@H](C)Nc1ncc2c(OC3CCOCC3)ncc([C@H]3CC[C@H](O)CC3)c2n1 [Compound 226] = 100 to 1000 nM

Please fill in: IC50 reported for C[C@@H](CC(F)(F)F)Nc1ncc2c(O[C@@H]3C[C@H]4CC[C@@H](C3)N4C[C@@H]3CCCO3)ncc([C@H]3CC[C@H](O)CC3)c2n1 [Compound 421] = ≤ 100 nM

Please fill in: IC50 reported for COCC(=O)N1C(C)(C)CC(Oc2ncc([C@H]3CC[C@H](O)CC3)c3nc(N[C@@H](C)CC(F)(F)F)ncc23)CC1(C)C [Compound 377] = 100 to 1000 nM

Please fill in: IC50 reported for Cc1nccc(N2CCC(Oc3ncc([C@H]4CC[C@H](O)CC4)c4nc(N[C@@H](C)CC(F)(F)F)ncc34)CC2)n1 [Compound 375] = ≤ 100 nM

Please fill in: IC50 reported for CNC(=O)N1CCC(c2cnc(OC3CCOCC3)c3cnc(N[C@@H](C)COC)nc23)CC1 [Compound 345] = 1000 to 10000 nM

----------
measured_on: MERTK (Homo sapiens)
test_method_notes: TR-FRET kinase activity assay, MERTK
Assay type: biochemical
particulars: ratio calculated as FLT3 IC50/Mer IC50
result_type: Mer/Flt3 ratio (FLT3 IC50/Mer IC50)

>>> result("CCN1C(C)(C)CC(Oc2ncc([C@H]3CC[C@H](O)CC3)c3nc(N[C@@H](C)CC(F)(F)F)ncc23)CC1(C)C [Compound 391]")
"+++ (a ratio of >100)"
>>> result("COC[C@H](C)Nc1ncc2c(OC3CCOCC3)ncc(C3CCC4(CC3)OCCO4)c2n1 [Compound 243]")
"+++ (a ratio of >100)"
